biological target: human NMDA receptor GluN1-GluN2A (Homo sapiens, UniProt Q05586+Q12879); construct: expressed in transfected cells; host or cells: CHO; test: FLIPR calcium assay, test item effect on L-glutamate CRC, GluN1-GluN2A-CHO; type: cell-based; settings: with test item 12.5 μM
Sequence (Q12879 23-1464, other chains not shown): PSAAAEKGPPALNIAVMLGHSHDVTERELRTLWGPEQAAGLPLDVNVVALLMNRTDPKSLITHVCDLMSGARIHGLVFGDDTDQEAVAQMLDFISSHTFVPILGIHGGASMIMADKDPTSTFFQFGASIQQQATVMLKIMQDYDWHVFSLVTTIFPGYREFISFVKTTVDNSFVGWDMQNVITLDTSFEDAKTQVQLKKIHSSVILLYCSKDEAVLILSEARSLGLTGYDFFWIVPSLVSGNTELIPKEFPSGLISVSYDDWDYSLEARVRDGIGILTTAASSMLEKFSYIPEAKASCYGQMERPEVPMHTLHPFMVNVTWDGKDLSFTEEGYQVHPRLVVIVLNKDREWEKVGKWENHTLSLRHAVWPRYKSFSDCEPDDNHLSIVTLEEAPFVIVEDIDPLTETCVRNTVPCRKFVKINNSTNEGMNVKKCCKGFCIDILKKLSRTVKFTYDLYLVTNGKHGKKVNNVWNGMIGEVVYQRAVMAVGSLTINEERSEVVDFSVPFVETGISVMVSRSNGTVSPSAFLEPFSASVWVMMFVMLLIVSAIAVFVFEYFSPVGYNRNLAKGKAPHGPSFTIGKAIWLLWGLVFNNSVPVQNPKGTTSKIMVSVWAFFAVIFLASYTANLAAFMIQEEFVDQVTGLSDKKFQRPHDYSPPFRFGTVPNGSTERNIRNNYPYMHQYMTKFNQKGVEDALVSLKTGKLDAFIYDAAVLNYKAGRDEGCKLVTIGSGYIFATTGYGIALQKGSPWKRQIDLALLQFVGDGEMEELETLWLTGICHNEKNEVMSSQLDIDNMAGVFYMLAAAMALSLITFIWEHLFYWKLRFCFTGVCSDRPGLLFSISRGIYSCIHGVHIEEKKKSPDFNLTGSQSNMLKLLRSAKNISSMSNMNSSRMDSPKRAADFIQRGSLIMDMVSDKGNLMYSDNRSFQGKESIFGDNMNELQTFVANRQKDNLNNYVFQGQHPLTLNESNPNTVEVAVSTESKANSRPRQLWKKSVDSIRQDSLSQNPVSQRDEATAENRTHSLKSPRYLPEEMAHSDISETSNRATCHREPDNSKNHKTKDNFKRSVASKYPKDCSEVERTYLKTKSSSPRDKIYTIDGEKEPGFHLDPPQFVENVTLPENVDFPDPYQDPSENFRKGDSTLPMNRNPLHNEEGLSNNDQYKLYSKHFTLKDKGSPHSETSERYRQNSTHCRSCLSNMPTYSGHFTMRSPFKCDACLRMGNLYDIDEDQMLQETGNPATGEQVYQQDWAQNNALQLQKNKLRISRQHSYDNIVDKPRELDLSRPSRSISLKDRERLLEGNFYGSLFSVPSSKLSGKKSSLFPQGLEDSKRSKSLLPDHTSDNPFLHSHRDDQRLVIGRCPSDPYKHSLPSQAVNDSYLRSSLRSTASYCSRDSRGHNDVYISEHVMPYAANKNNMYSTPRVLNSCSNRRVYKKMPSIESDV
Structures can show the parent of a compound that is named as a salt.
TEST_READOUT: L-glutamate CRC LogEC50
Lab note: jot down the number only; don't add units.

Challenge: For the molecule CC12CC3CC(C)(C1)CC(N)(C3)C2 [Memantine, memantine hydrochloride] , report L-glutamate CRC LogEC50.
Response given: −6.3

Challenge: # return recorded L-glutamate CRC LogEC50 for entry CCC(=O)C(C[C@H](C)N(C)C)(c1ccccc1)c1ccccc1 [Dextromethadone, dextromethadone]
Response given: −6.4

Challenge: Kindly indicate its recorded L-glutamate CRC LogEC50. Item: COc1ccc2c(c1)[C@]13CCCC[C@@H]1[C@H](C2)N(C)CC3 [Dextromethorphan, hydrobromide monohydrate]
Response given: −6.4

Challenge: Tell me L-glutamate CRC LogEC50 reported for CNC1(c2ccccc2Cl)CCCCC1=O (racemic) [(±)-Ketamine, (±)-ketamine hydrochloride]
Response given: −6.4
